All figures here come from patent EP0298466A2.

SYSTEM: PAF Binding (Canis lupus familiaris, UniProt A0A8I3NSH0)
Sequence (A0A8I3NSH0 1-343): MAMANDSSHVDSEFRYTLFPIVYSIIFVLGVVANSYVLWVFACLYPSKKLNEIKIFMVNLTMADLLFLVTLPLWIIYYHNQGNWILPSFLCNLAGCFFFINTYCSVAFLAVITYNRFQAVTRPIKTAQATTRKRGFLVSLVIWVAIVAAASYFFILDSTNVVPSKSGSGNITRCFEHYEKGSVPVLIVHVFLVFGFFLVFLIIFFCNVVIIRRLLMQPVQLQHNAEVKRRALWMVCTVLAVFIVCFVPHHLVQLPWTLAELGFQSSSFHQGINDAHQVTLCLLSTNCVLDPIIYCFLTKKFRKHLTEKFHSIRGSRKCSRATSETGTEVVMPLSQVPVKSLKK
MEASUREMENT_DESCRIPTION: PAF binding assay (³H-PAF, dog platelets)
CONDITION_SUMMARY: washed dog platelets (2 x 10⁷ platelets), 10 minutes at room temperature, read-out: Inhibition of PAF Binding IC₅₀
Please map values of IC50 to classes as shown: low value (below 7 nM), medium value (7 nM to below 20 nM), high value (20 nM or more)

{"columns": ["MOLECULE_SMILES", "CLASS"],
 "data": [
  ["CCCCc1c(/C=C/C(=O)N[C@H](C)CCCc2cccnc2)cc(OC)c2ccccc12", "low value"],
  ["CCCCc1c(/C=C/C(=O)N[C@H](C)CCCc2cccnc2)ccc2ccc(OC)cc12", "medium value"],
  ["CCCCCC1=C(/C=C/C(=O)N[C@H](C)CCCc2cccnc2)Cc2cc(OC)ccc21", "high value"],
  ["COc1cccc(-c2c(/C=C/C(=O)NCCCCc3cccnc3)ccc3ccc(OC)cc23)c1", "medium value"],
  ["CCCCCc1c(/C=C/C(=O)N[C@H](C)CCCc2cccnc2)sc2cc(OC)ccc12", "high value"],
  ["CCCCc1c(/C=C/C(=O)N[C@H](C)CCCc2cccnc2)ccc2c(OC)cccc12", "low value"],
  ["COc1ccc(-c2c(/C=C/C(=O)N[C@H](C)CCCc3cccnc3)ccc3cc(OC)ccc23)cc1", "high value"],
  ["COc1ccc(C2=C(/C=C/C(=O)N[C@H](C)CCCc3cccnc3)CCc3cc(OC)ccc32)cc1", "high value"],
  ["CCCCc1c(/C=C/C(=O)N[C@H](C)CCCc2cccnc2)cc(OC)c2ccc(OC)cc12", "low value"]
]}

* * *

System: PAF Induced Bronchoconstriction
MEASUREMENT_DESCRIPTION: PAF Induced Bronchoconstriction Assay
Format: in vivo, guinea pigs
CONDITION_SUMMARY: Cavia porcellus; 1mg/Kg iv, 1 minute pretreatment, guinea pig, PAF challenge 1.0µg/kg intravenous; percent inhibition, spread = standard error of the mean
Procedure: Male guinea pigs (Hartley Strain, 400-500 g) were anesthetized with urethane (2 g/kg, i.p.). […] Tracheal pressure was recorded from a cannula inserted in the trachea and connected to a Statham pressure Transducer. […] For the intravenous testing, the guinea pig is given a 5-minute pretreatment with propranolol at a dose of 0.1 mg/kg intravenously. […] The animal is then challenged with a 1.0µg/kg intravenous dose of PAF and the change in tracheal pressure is measured. […]
Below, each entry is listed alongside its reported inhibition in vivo at 1 mg/kg.

{"columns": ["MOLECULE_SMILES", "inhibition in vivo at 1 mg/kg"],
 "data": [
  ["CCCCc1c(/C=C/C(=O)N[C@H](C)CCCc2cccnc2)cc(OC)c2ccc(OC)cc12", "80%"],
  ["COc1ccc(C2=C(/C=C/C(=O)N[C@H](C)CCCc3cccnc3)CCc3cc(OC)ccc32)cc1", "95%"],
  ["CCCCCc1c(/C=C/C(=O)N[C@H](C)CCCc2cccnc2)sc2cc(OC)ccc12", "98%"],
  ["CCCCc1c(/C=C/C(=O)N[C@H](C)CCCc2cccnc2)ccc2cc(OC)ccc12", "95%"],
  ["CCCCc1c(/C=C/C(=O)N[C@H](C)CCCc2cccnc2)cc(OC)c2ccccc12", "90%"],
  ["CCCCc1c(/C=C/C(=O)N[C@H](C)CCCc2cccnc2)ccc2c(OC)cccc12", "50%"],
  ["CCCCCC1=C(/C=C/C(=O)N[C@H](C)CCCc2cccnc2)Cc2cc(OC)ccc21", "96%"],
  ["CCCCCc1c(/C=C/C(=O)N[C@H](C)CCCc2cccnc2)oc2cc(OC)ccc12", "89%"],
  ["COc1cccc(-c2c(/C=C/C(=O)NCCCCc3cccnc3)ccc3ccc(OC)cc23)c1", "62%"],
  ["COc1ccc(-c2c(/C=C/C(=O)N[C@H](C)CCCc3cccnc3)ccc3cc(OC)ccc23)cc1", "92%"],
  ["CCCCC1=C(/C=C/C(=O)N[C@H](C)CCCc2cccnc2)CCc2cc(OC)ccc21", "94%"]
]}
